Origin of values: PubChem BioAssay (NCI)

GI50 listing for selected molecules.
# Tested on: EKVX NSCLC
# ASSAY SUMMARY: NCI tumour cell line growth inhibition, 48 h

| MOLECULE | GI50 |
| --- | --- |
| COc1cc(-c2n/c(=C\c3c(O)[nH]c4ccc(Cl)cc34)cc3c2=Nc2ccccc2-3)cc(OC)c1OC | 3.59 µM |
| O=C(COc1ccc(/C=C2\Oc3ccccc3C2=O)cc1)Nc1nccs1 | 51.5 µM |
| Oc1c(C(Nc2cccc3ccccc23)c2ccccc2)ccc2cccnc12 (stereo not drawn) | 2.93 µM |

###

# Test system: UACC-257 melanoma
# ASSAY SUMMARY: NCI tumour cell line growth inhibition, 48 h

| SMILES | GI50 |
| --- | --- |
| C=CCn1c(=O)c2cnc(Nc3ccc(N4CCN(C)CC4)cc3)nc2n1-c1ccc2c(n1)[C@@](O)(CC)CC2 | 1750 nM |
| O=S(=O)(Nc1cc(Br)c(O)c2ccccc12)c1ccc(F)cc1 | 1870 nM |
| COc1cccc(C(=O)Nc2ccc(CN3CCc4nc5cc(OC)c(OC)cc5cc43)cc2)c1 | 5470 nM |
| NC(=O)c1cc(-c2ccncc2)cc(-c2ccccc2)c1N | > 25000 nM |
| Cc1onc(-c2c(F)cccc2Cl)c1-c1ncc(-c2ccc(Cl)cc2)o1 | 3250 nM |
| COc1ccc2c(c1)[C@]1(C[C@H]1c1ccc3c(/C=C/c4ccc(CN5C[C@@H](C)O[C@@H](C)C5)cc4)n[nH]c3c1)C(=O)N2 | 6800 nM |
| CN1CCN(CCCOc2cccc3nc(Nc4ccc(Cl)c(F)c4)ccc23)CC1 | 2040 nM |
| COc1ccc(Cl)cc1Nc1nc(C(F)(F)F)ccc1C(=O)N/N=C/c1ccc([N+](=O)[O-])cc1 | 2920 nM |
